pIC50: −log10 of the molar value.
# PIK3CA (human): pIC50 values follow

For each entry beneath this line, provide reported pIC50.
1. COc1ccccc1Nc1nc(-c2cccc3[nH]ncc23)nc2cc(CN(C)c3ncc(C(=O)NO)cn3)sc12
2. CN(Cc1cc2nc(-c3ccc(CN)cc3)nc(N3CCOCC3)c2s1)c1ncc(C(=O)NO)cn1
3. COCCN(Cc1cc2nc(-c3cccc4[nH]ncc34)nc(N3CCOCC3)c2s1)c1ncc(C(=O)NO)cn1

Found:
1. 6.00 to 7.00
2. 6.00 to 7.00
3. > 7.00

Lookup: Fill in: pIC50 of NCCN(Cc1cc2nc(-c3cccc4[nH]ncc34)nc(N3CCOCC3)c2s1)c1ncc(C(=O)NO)cn1 is ___
Found: > 7.00

---

Parameter 'readout' = pIC50; parameter 'system' = PIK3CA (human) (UniProt P42336).
Sequence (P42336 whole entry, looked up): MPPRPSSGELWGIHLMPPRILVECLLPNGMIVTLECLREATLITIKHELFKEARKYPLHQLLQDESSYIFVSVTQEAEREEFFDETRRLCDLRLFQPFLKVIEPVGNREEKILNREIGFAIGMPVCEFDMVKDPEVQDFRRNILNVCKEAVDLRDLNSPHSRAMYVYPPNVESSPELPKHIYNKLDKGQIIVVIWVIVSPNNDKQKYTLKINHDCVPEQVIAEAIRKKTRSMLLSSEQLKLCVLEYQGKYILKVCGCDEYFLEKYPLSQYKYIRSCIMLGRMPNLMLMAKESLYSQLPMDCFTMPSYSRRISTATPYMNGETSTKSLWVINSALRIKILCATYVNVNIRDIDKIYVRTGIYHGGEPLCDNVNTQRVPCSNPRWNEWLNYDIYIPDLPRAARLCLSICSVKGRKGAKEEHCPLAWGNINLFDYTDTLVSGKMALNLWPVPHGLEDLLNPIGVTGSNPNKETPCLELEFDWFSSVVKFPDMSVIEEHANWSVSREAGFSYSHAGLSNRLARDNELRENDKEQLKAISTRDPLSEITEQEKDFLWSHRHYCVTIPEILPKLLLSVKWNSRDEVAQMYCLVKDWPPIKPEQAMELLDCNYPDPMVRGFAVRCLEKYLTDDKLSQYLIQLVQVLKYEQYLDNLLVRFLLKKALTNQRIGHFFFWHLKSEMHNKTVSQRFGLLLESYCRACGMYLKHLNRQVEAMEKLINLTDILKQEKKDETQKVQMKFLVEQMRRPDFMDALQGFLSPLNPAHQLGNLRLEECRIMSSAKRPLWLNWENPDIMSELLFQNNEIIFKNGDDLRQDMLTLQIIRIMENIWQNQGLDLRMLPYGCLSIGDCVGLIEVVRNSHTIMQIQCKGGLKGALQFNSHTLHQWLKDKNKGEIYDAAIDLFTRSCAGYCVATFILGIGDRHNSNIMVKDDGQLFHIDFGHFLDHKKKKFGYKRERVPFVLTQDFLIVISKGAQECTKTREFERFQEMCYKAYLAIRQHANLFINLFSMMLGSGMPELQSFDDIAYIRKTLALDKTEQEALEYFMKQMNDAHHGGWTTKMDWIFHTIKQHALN
pIC50: −log10 of the molar value.

Recorded pIC50, per entry:
>  <molecule_smiles>
CNc1ncc(-c2nc(N3CCOCC3)c3sc(CN(C)c4ncc(C(=O)NO)cn4)cc3n2)cn1

>  <pIC50>
> 7.00

$$$$
>  <molecule_smiles>
CN(Cc1cc2nc(-c3ccc(CO)cc3)nc(N3CCOCC3)c2s1)c1ncc(C(=O)NO)cn1

>  <pIC50>
6.00 to 7.00

$$$$
>  <molecule_smiles>
O=C(NO)c1cnc(N2CCC(CNCc3cc4nc(-c5cccc6[nH]ncc56)nc(N5CCOCC5)c4s3)CC2)nc1

>  <pIC50>
6.00 to 7.00

$$$$

Next compound, please.
Lookup: Please report the recorded pIC50 for Cn1cc(CNc2cc3nc(-c4cccc5[nH]ncc45)nc(N4CCOCC4)c3s2)c2cc(C(=O)NO)ccc21 .
Found: > 7.00

---

Here's a batch of molecules along with measured IC50 for PIK3CA (human) (UniProt P42336).

Some entries whose results are on file:
>  <molecule>
CN(CCCCC(=O)NO)Cc1cc2nc(-c3cccc4[nH]ncc34)nc(N3CCOCC3)c2s1

>  <target_system>
PIK3CA (human) (UniProt P42336)

>  <reported_result>
100 to 1000 nM

$$$$
>  <molecule>
CN(Cc1cc2nc(-c3ccc(N)c(N)c3)nc(N3CCOCC3)c2s1)c1ncc(C(=O)NO)cn1

>  <target_system>
PIK3CA (human) (UniProt P42336)

>  <reported_result>
100 to 1000 nM

$$$$
>  <molecule>
CC(c1cc2nc(-c3cccc4[nH]ncc34)nc(N3CCOCC3)c2s1)N(C)c1ncc(C(=O)NO)cn1 (configuration not stated)

>  <target_system>
PIK3CA (human) (UniProt P42336)

>  <reported_result>
< 100 nM

$$$$
>  <molecule>
CC(C)(Nc1ncc(C(=O)NO)cn1)c1cc2nc(-c3cccc4[nH]ncc34)nc(N3CCOCC3)c2s1

>  <target_system>
PIK3CA (human) (UniProt P42336)

>  <reported_result>
100 to 1000 nM

$$$$
>  <molecule>
CN(C)CCN(Cc1cc2nc(-c3cccc4[nH]ncc34)nc(N3CCOCC3)c2s1)c1ncc(C(=O)NO)cn1

>  <target_system>
PIK3CA (human) (UniProt P42336)

>  <reported_result>
< 100 nM

$$$$
>  <molecule>
NC(=O)CN(Cc1cc2nc(-c3cccc4[nH]ncc34)nc(N3CCOCC3)c2s1)c1ncc(C(=O)NO)cn1

>  <target_system>
PIK3CA (human) (UniProt P42336)

>  <reported_result>
< 100 nM

$$$$
>  <molecule>
CCc1ncc(-c2nc(N3CCOCC3)c3sc(CN(C)c4ncc(C(=O)NO)cn4)cc3n2)cn1

>  <target_system>
PIK3CA (human) (UniProt P42336)

>  <reported_result>
< 100 nM

$$$$
>  <molecule>
CN(Cc1cc2nc(-c3cnc(C(N)=O)nc3)nc(N3CCOCC3)c2s1)c1ncc(C(=O)NO)cn1

>  <target_system>
PIK3CA (human) (UniProt P42336)

>  <reported_result>
< 100 nM

$$$$
>  <molecule>
CN(Cc1cc2nc(-c3cccc4[nH]ncc34)nc(NCCO)c2s1)c1ncc(C(=O)NO)cn1

>  <target_system>
PIK3CA (human) (UniProt P42336)

>  <reported_result>
100 to 1000 nM

$$$$
>  <molecule>
O=C(CCCCCCNc1cc2nc(-c3cccc4[nH]ncc34)nc(N3CCOCC3)c2s1)NO

>  <target_system>
PIK3CA (human) (UniProt P42336)

>  <reported_result>
100 to 1000 nM

$$$$

Hi team, please reply with IC50 for each item in this list.
1. Nc1ccc(-c2nc(N3CCOCC3)c3sc(CNCc4ccc(/C=C/C(=O)NO)cc4)cc3n2)cc1
2. N#CCCN(Cc1cc2nc(-c3cccc4[nH]ncc34)nc(N3CCOCC3)c2s1)c1ncc(C(=O)NO)cn1
3. CC(=O)Nc1ccc(-c2nc(N3CCOCC3)c3sc(CN(C)c4ncc(C(=O)NO)cn4)cc3n2)cn1
4. CC(C)(C)CN(Cc1cc2nc(-c3cccc4[nH]ncc34)nc(N3CCOCC3)c2s1)c1ncc(C(=O)NO)cn1
5. CN(Cc1cc2nc(-c3cccc4[nH]ncc34)nc(N3CCOCC3)c2s1)c1ccc(C(=O)NO)cc1
6. CN(Cc1cc2nc(-c3cccc4[nH]ncc34)nc(N3CCOCC3)c2s1)c1ccc(/C=C/C(=O)NO)cc1

Found:
1: 100 to 1000 nM; 2: < 100 nM; 3: < 100 nM; 4: 100 to 1000 nM; 5: < 100 nM; 6: < 100 nM

Batch: IC50 for all items listed.
1. CN(Cc1cc2nc(-c3cccc(CO)c3)nc(N3CCOCC3)c2s1)c1ncc(C(=O)NO)cn1
2. O=C(NO)c1cnc(NCc2cc3cc(-c4cccc5[nH]ncc45)nc(N4CCOCC4)c3s2)nc1
3. Cc1ncc(-c2nc(N3CCOCC3)c3sc(CN(C)c4ncc(C(=O)NO)cn4)cc3n2)cn1
4. CN(CCCCCCC(=O)NO)Cc1cc2nc(-c3cccc4[nH]ncc34)nc(N3CCOCC3)c2s1
5. CN(CC1CCN(c2ncc(C(=O)NO)cn2)CC1)c1cc2nc(-c3cccc4[nH]ncc34)nc(N3CCOCC3)c2s1
6. O=C(/C=C/c1ccc(NCc2cc3nc(-c4cccc5[nH]ncc45)nc(N4CCOCC4)c3s2)cc1)NO

Found:
["< 100 nM", "100 to 1000 nM", "< 100 nM", "< 100 nM", "< 100 nM", "< 100 nM"]

Working through the 5 molecules below one at a time, give IC50 for each.
1. CN(Cc1cc2nc(-c3cccnc3)nc(N3CCOCC3)c2s1)c1ncc(C(=O)NO)cn1
2. CN(Cc1cc2nc(-c3cc[nH]c3)nc(N3CCOCC3)c2s1)c1ncc(C(=O)NO)cn1
3. CN(Cc1cc2nc(-c3cnc(CN)nc3)nc(N3CCOCC3)c2s1)c1ncc(C(=O)NO)cn1
4. CN(Cc1cc2nc(-c3cccc4[nH]ncc34)nc(N3CCCCC3)c2s1)c1ncc(C(=O)NO)cn1
5. Nc1ccc(-c2nc(N3CCOCC3)c3sc(CNc4ncc(C(=O)NO)cn4)cc3n2)cc1

Found:
1. < 100 nM
2. < 100 nM
3. < 100 nM
4. 100 to 1000 nM
5. 100 to 1000 nM

Respectfully, I request IC50 for each entry included below.
1. CN(Cc1cc2nc(-c3cccc4[nH]ccc34)nc(N3CCOCC3)c2s1)c1ncc(C(=O)NO)cn1
2. O=C(NO)c1cnc(NCc2cc3nc(-c4cccc5[nH]ncc45)nc(N4CCOCC4)c3s2)nc1
3. O=C(NO)c1cnc(N2CCN(Cc3cc4nc(-c5cccc6[nH]ncc56)nc(N5CCOCC5)c4s3)CC2)nc1
4. CC(C)CN(Cc1cc2nc(-c3cccc4[nH]ncc34)nc(N3CCOCC3)c2s1)c1ncc(C(=O)NO)cn1
5. O=C(O)CN(Cc1cc2nc(-c3cccc4[nH]ncc34)nc(N3CCOCC3)c2s1)c1ncc(C(=O)NO)cn1

Found:
100 to 1000 nM
< 100 nM
< 100 nM
100 to 1000 nM
< 100 nM

---

Lab note: IC50 readings collected with PIK3CG (human) for the following compounds.

>  <molecule_smiles>
CN(Cc1cc2nc(-c3cccc4[nH]ncc34)nc(N3CCOCC3)c2s1)c1ncc(C(=O)NO)cn1

>  <reported_result>
< 0.1 µM

$$$$

Shifting focus to the compound that follows.
Lookup: Entry under review: O=C(NO)c1cnc(NCc2cc3nc(-c4cccc5[nH]ncc45)nc(N4CCOCC4)c3s2)nc1 . Reported IC50?
Found: < 0.1 µM
